# pKi listing for each entry below
# measurement_target: ATP-citrate synthase (Rattus norvegicus)
# Sequence (P16638 whole entry): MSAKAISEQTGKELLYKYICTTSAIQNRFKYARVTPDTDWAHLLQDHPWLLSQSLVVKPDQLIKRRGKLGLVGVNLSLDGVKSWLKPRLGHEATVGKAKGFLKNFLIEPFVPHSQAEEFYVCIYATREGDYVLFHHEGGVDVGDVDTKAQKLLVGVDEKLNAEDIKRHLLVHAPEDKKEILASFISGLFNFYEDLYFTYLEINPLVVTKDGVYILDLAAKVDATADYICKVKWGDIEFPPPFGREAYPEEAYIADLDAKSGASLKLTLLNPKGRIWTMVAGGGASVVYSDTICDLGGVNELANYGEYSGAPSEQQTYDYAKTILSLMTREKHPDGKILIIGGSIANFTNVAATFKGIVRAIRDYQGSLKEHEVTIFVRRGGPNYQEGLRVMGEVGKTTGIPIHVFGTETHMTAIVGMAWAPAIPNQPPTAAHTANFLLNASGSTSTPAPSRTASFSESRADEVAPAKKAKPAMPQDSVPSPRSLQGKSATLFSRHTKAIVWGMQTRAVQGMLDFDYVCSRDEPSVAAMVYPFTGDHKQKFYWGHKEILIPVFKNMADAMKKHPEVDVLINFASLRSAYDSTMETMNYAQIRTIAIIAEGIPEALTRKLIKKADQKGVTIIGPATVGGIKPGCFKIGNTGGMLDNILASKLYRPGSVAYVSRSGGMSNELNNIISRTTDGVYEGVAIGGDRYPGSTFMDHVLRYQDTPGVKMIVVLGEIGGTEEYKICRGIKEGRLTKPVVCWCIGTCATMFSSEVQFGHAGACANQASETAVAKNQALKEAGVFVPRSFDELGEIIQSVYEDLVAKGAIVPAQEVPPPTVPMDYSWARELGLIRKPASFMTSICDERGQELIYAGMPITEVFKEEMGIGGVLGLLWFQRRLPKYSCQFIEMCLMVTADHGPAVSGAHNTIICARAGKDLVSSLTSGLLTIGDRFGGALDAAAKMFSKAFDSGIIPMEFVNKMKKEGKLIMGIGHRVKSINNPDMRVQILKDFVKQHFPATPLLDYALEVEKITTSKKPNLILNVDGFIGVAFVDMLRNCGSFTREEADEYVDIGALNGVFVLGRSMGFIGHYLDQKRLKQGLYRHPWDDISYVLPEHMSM
# method_summary: Inhibition of rat liver ACLY
For clarity, pKi is expressed as the negative log10 of concentration in mol/L.

Worked examples, 3 molecules total:
molecule=CCCCCC[C@H]1C(=O)O[C@H](C)[C@H](NC(=O)c2cccc(NC=O)c2O)C(=O)O[C@@H](C)[C@@H]1OC(=O)C(C)C value=5.40
molecule="CCC(C)C(=O)O[C@H]1[C@H](C)OC(=O)[C@@H](NC(=O)c2cccc(NC=O)c2O)[C@@H](C)OC(=O)[C@@H]1CCC(C)C (stereo partly specified)" value=5.40
molecule=CCCCCC[C@H]1C(=O)O[C@H](C)[C@H](NC(=O)c2cccc(NC=O)c2O)C(=O)O[C@@H](C)[C@@H]1OC(=O)CCC value=5.40

Name the reported pKi value associated with the molecule N[C@@H](CCC(=O)O)C(=O)O
3.52

Please give the result for CC(C)CC[C@H]1C(=O)O[C@H](C)[C@H](NC(=O)c2cccc(NC=O)c2O)C(=O)O[C@@H](C)[C@@H]1OC(=O)CC(C)C too.
5.40
